Entries with their measured IC50, system electric eel AChE (Electrophorus electricus, UniProt O42275):

{"Compound": "CC(C)=CCC/C(C)=C/Cc1c(O)ccc2cc(-c3cc(O)cc(O)c3CC=C(C)C)oc12 [mulberrofuran D (1), mulberrofuran D]", "IC50": "23 µM"}

Proceeding to the next compound to report its IC50.
Noted for C[C@@]12C=C(c3c(O)cc(-c4cc5ccc(O)cc5o4)cc3O)C[C@@H](C1)c1ccc(O)cc1O2 [mulberrofuran H (3), mulberrofuran H] : its IC50 reads > 200 µM
